Origin of the recorded values: ChEMBL document CHEMBL3994591

- ASSAYED_TARGET: Acetylcholinesterase (Homo sapiens)
- Sequence (P22303 whole entry): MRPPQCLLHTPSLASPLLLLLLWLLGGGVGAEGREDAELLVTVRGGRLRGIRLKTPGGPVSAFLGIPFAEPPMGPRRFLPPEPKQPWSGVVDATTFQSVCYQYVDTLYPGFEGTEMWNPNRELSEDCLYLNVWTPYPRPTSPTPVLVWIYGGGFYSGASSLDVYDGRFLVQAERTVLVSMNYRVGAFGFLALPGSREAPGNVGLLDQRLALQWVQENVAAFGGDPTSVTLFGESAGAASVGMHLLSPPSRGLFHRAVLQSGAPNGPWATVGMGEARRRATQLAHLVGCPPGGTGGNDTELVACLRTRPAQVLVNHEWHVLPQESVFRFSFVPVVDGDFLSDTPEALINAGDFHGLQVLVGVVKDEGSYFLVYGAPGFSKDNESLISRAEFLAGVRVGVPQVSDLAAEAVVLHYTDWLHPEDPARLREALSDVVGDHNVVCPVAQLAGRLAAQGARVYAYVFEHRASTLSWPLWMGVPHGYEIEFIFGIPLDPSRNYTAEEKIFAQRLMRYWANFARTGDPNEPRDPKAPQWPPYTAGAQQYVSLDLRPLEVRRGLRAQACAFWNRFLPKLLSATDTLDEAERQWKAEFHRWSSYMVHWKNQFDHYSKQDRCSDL
Just a reminder that ties go to NOT MET: only IC50 strictly below 9 µM counts as MET.

SMILES_STRUCTURE: COc1cc(/C=C/C(=O)Nc2ccccc2)ccc1OCCCCCCCCN1CCCCC1
CLASS_ASSIGNMENT: MET
//
SMILES_STRUCTURE: CCN(CC)CCCOc1ccc(/C=C/C(=O)Nc2ccccc2)cc1OC
CLASS_ASSIGNMENT: NOT MET
//
SMILES_STRUCTURE: COc1cc(/C=C/C(=O)Nc2ccccc2)ccc1OCCCCCCN1CCCCC1
CLASS_ASSIGNMENT: MET

Please indicate whether the reported IC50 of CCOC(=O)/C=C/c1ccc(OCCCCCCN2CCCCC2)c(OC)c1 is strictly below 9 µM. MET

Is IC50 of COc1cc(/C=C/C(=O)Nc2ccccc2)ccc1OCCCCCN1CCCC1 strictly below 9 µM? MET

Take the compound CCOC(=O)/C=C/c1ccc(OCCCCCCN2CCCC2)c(OC)c1 and say whether its IC50 is less than 9 µM. MET

Check if IC50 falls below 9 µM for COc1cc(/C=C/C(=O)Nc2ccccc2)ccc1OCCCN1CCCC1 . NOT MET

For this compound, is IC50 lower than 9 µM? COc1cc(/C=C/C(=O)Nc2ccccc2)ccc1OCCN1CCCC1 NOT MET

In the record for COc1cc(/C=C/C(=O)Nc2ccccc2)ccc1OCCCCCCCCCCN1CCCCC1 , is IC50 less than 9 µM? NOT MET

State whether 9 µM exceeds IC50 recorded for CCN(CC)CCCCCCCCOc1ccc(/C=C/C(=O)O)cc1OC . MET
